B1: RAB22A (parent)
chain: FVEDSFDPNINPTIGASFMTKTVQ

variants of: B1; assay: protein stability index of a GFP-peptide fusion (GPS, HEK-293T) (PSI 1-6); higher = more stable; settings: c terminus: a fixed tail appended;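 note: lentivirally expressed fusions sorted by FACS into six bins by GFP to DsRed ratio, PSI derived from sequencing read proportions per bin multiplied by bin number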
measurement type: protein stability index

| primary sequence | experimental value |
| --- | --- |
| FVEDSGDPNINPTIGASFMTKTVQ [F6G] | 3.27 |
| FVEDSFDPNINPTIGASFMTKTFQ [V23F] | 1.79 |
| FVEYSFDPNINPTIGASFMTKTVQ [D4Y] | 2.98 |
| FVEDSFDCNINPTIGASFMTKTVQ [P8C] | 2.02 |
| FVEKSFDPNINPTIGASFMTKTVQ [D4K] | 1.52 |
| FVEDSFDPWINPTIGASFMTKTVQ [N9W] | 2.65 |
| FVEDSFDPNIDPTIGASFMTKTVQ [N11D] | 2.56 |
| FVEDSFDPNIQPTIGASFMTKTVQ [N11Q] | 2.48 |
| FVEDSFDPNINPTIGASFMTKTRQ [V23R] | 1.89 |
| FVEDSFDPNINPTIGASFMTKTSQ [V23S] | 2.66 |
| FVEDSFDPNINPTIGASFMKKTVQ [T20K] | 2.23 |
| FVEDIFDPNINPTIGASFMTKTVQ [S5I] | 2.18 |
